Test method notes: reversal of MRP1-mediated doxorubicin resistance, pilot screen, H69AR cells, doxorubicin co-treatment (AID 601)
Measurement conditions: H69AR cells + 2 uM doxorubicin, CellTiter-Glo, 72 h; at 10 µM; stronger effect = higher value
Reported values of differential viability (reversal) for individual entries
Supply the numeric figure in %, leaving out any unit text.

Use the examples below as a reference point.
> print(dat)
                                   compound  measured.value
1          Cc1nc2ccc(N3C(=O)CCC3=O)cc2[nH]1            7.96
2             O=C(c1ccc(Cl)c(Cl)c1)N1CCOCC1           -5.39
3  COc1ccc(OC)c(S(=O)(=O)N2CCC(C(=O)NCC3CCCO3)CC2)c1 (centres undefined)            8.66
4             CCSc1ccccc1C(=O)Nc1cccc(OC)c1            11.7
5         CCOc1ccccc1NC(=O)CSc1c(C)n[nH]c1C            19.8

Just so you know, measured differential viability (reversal) for Cc1ccc(CNC(=O)CSc2n[nH]c(N)n2)cc1 came out at -1.86

Just so you know, measured differential viability (reversal) for Cc1ccc(C2Nc3ccccc3-c3nc4ccccc4n32)o1 (centres undefined) came out at -18.1

Just so you know, measured differential viability (reversal) for CC(=O)Nc1ccc2c(c1)nc(CCNC(=O)c1ccccc1)n2C came out at 15.8

* * *

Reported values of inhibition for individual entries
Test method notes: growth suppression of yeast trafficking mutant, preliminary HTS, modulators of trafficking downstream of Golgi apparatus project, 1536-format plate, OD 615 nm (AID 637)
Measurement conditions: yeast transport mutant growth, absorbance 615 nm, 18 h; stronger effect = higher value
Supply the numeric figure in %, leaving out any unit text.

> print(dat)
                                   compound  measured.value
1  Cc1sc2ncnc(OCC(=O)N3CCN(S(=O)(=O)c4ccc(Cl)cc4)CC3)c2c1C           -0.91
2  O=C1C2CC=C(Cl)CC2C(=O)N1c1ncn[nH]1 (configuration not stated)           -5.32
3  O=C(c1cc2n(n1)C(C(F)(F)F)CC(c1ccc(Cl)cc1)N2)N1CCCC1 (configuration not stated)            3.17

Just so you know, measured inhibition for COCCCNS(=O)(=O)c1ccc2c(c1)CCN2C(C)=O came out at -0.32

Just so you know, measured inhibition for CCCCCn1c(CN2CCN(C(=O)OCC)CC2)nc2c1c(=O)[nH]c(=O)n2C came out at 0.16

Just so you know, measured inhibition for CCn1c(CC(=O)Nc2cccc(OC)c2)nnc1SCC(=O)Nc1nccs1 came out at -2.26

Just so you know, measured inhibition for O=c1cc(CN2CCN(c3ccc(F)cc3)CC2)nc2sccn12 came out at -14.2

Just so you know, measured inhibition for CC(=O)c1c(C)nn(CC(O)COc2ccc3c(c2)CCC3)c1C (configuration not stated) came out at -6.03

* * *

Test method notes: reducers of endogenous Her2 protein level, primary screen, SKBR3 breast tumor cells, AlphaScreen, ATP viability (AID 461);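 as to viability: percent of carrier control wells set as 100% viability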
Measurement conditions: 18-24 h, measured here: SKBR3 viability, ATP luminescence, at 10 µM
Reported values of viability for individual entries
Supply the numeric figure in %, leaving out any unit text.

> print(dat)
                                   compound  measured.value
1  O=C1CCN(C(=O)c2ccccc2)C2CCCCC12 (stereo not drawn)              98
2     Cc1cccc(-n2ccnc2SCC(=O)Nc2cc(C)on2)c1              96
3     O=C(OCC(=O)c1c[nH]c2ccccc12)C1=COCCO1              96
4  Fc1ccccc1C(c1nnnn1Cc1ccc2c(c1)OCO2)N1CCN(Cc2ccccc2)CC1 (stereo not drawn)             121
5  CCCOC(=O)C1[C@H]2C(=O)N(CCCOC)C[C@]23C=C[C@H]1O3 (stereo partly drawn)            92.5
6         COC(=O)c1cc(O)c(OCc2ccccc2)c(O)c1              88

Just so you know, measured viability for COC(=O)Cn1c2c(c3cc(C)ccc31)CCCC2 came out at 83

Just so you know, measured viability for O=C(CN1C(=O)C2CC=C(Cl)CC2C1=O)Nc1ccc(C(=O)O)cc1 (stereo not drawn) came out at 127

* * *

Assay system: Receptor tyrosine-protein kinase erbB-2 (Homo sapiens)
Test method notes: reducers of endogenous Her2 protein level, primary screen, SKBR3 breast tumor cells, AlphaScreen, ATP viability (AID 461);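 as to Her2 level: lower value means less Her2 protein in the cells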;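 as to viability: percent of carrier control wells set as 100% viability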
Measurement conditions: 18-24 h, at 10 µM, stronger effect = lower value
Reported metric: Her2 level (%)
Supply the numeric figure in %, leaving out any unit text.

Use the examples below as a reference point.
> print(dat)
                                   molecule                              assay.system  reported.metric  measured.value
1  COc1ccc(NC(=O)CC2Oc3ccccc3NC2=O)cc1 (centres undefined)  Receptor tyrosine-protein kinase erbB-2 (Homo sapiens)       Her2 level              90
2            O=c1oc2ccccc2c2c1ncn2-c1ccccc1  Receptor tyrosine-protein kinase erbB-2 (Homo sapiens)       Her2 level              96
3  CC(C)(C)c1cc(CCC(=O)N2CCNCC2)c(C(C)(C)C)cc1O  Receptor tyrosine-protein kinase erbB-2 (Homo sapiens)       Her2 level            85.5
4                    C(=N\n1cnnc1)/c1cccnc1  Receptor tyrosine-protein kinase erbB-2 (Homo sapiens)       Her2 level             107
5  CCc1cccc(NC(=O)C2CCCN(S(=O)(=O)c3c(C)[nH]c(=O)[nH]c3=O)C2)c1 (centres undefined)  Receptor tyrosine-protein kinase erbB-2 (Homo sapiens)       Her2 level              82

Just so you know, measured Her2 level for CCN(CC)S(=O)(=O)c1ccc(F)cc1 came out at 106

* * *

Test method notes: reducers of endogenous Her2 protein level, primary screen, SKBR3 breast tumor cells, AlphaScreen, ATP viability (AID 461);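 as to viability: percent of carrier control wells set as 100% viability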
Measurement conditions: 18-24 h, measured here: SKBR3 viability, ATP luminescence, at 10 µM
Reported values of viability for individual entries
Supply the numeric figure in %, leaving out any unit text.

> print(dat)
                                   compound  units.symbol  measured.value
1  Cc1ccc(NCC(O)C(O)C(O)CO)cc1C (stereo unspecified)             %             113
2                 Cc1nnc(NC(=O)c2ccccc2F)s1             %             100

Please find the next compound below.
Just so you know, measured viability for NC(=O)CSc1nnc(-c2cc3ccccc3o2)n1Cc1ccccc1 came out at 92.5

* * *

Test method notes: reversal of MRP1-mediated doxorubicin resistance, pilot screen, H69AR cells, doxorubicin co-treatment (AID 601)
Measurement conditions: H69AR cells + 2 uM doxorubicin, CellTiter-Glo, 72 h; at 10 µM; stronger effect = higher value
Reported metric: differential viability (reversal) (%)
Supply the numeric figure in %, leaving out any unit text.

Use the examples below as a reference point.
> print(dat)
                                   molecule                    reported.metric  units.symbol  measured.value
1      CNC(=O)CN(C#N)c1nc(N(C)C)nc(N(C)C)n1  differential viability (reversal)             %            2.61
2  CCOC(=O)c1ccc(NC(=O)c2ccc(NS(C)(=O)=O)cc2)cc1  differential viability (reversal)             %            3.85
3  CC1CC(C)CN(CCCNC(=O)COc2cc(=O)n(C)c3ccccc23)C1 (centres undefined)  differential viability (reversal)             %            16.5
4  CN(C(=O)CSc1nc2c(c(=O)[nH]1)CCCC2)C1CCCCC1  differential viability (reversal)             %            1.09
5  CN1CCCN(CC(O)COCc2cccs2)CC1 (centres undefined)  differential viability (reversal)             %            14.2

Just so you know, measured differential viability (reversal) for c1cnn(-c2cc(N3CCOCC3)ncn2)c1 came out at 7.52

* * *

Test method notes: reducers of endogenous Her2 protein level, primary screen, SKBR3 breast tumor cells, AlphaScreen, ATP viability (AID 461);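 as to viability: percent of carrier control wells set as 100% viability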
Measurement conditions: 18-24 h, measured here: SKBR3 viability, ATP luminescence, at 10 µM
Reported values of viability for individual entries

Use the examples below as a reference point.
> print(dat)
                                   molecule  reported.metric  measured.value
1  COc1ccccc1CN1C(=S)SC(C)(C)C1NO (stereo unspecified)        viability            100%
2  Cn1cccc1Cc1nnc(SCC(=O)Nc2ccccc2F)n1-c1ccc(F)cc1        viability           87.5%
3       COc1cccc(C(=O)Nc2ccc(N(C)C)cc2)c1OC        viability             97%
4  CC(CN1CCN(C)CC1)OC(=O)c1ccc(Cl)cc1Cl (stereo unspecified)        viability            127%
5  CCSc1nnc(NC(=O)c2nn(C(C)C)c(=O)c3ccccc23)s1        viability             99%

Just so you know, measured viability for O=C(c1cccn2c(=O)c3cc(Cl)ccc3nc12)N1CCOCC1 came out at 95.5%

Just so you know, measured viability for COc1cccc(C(=O)NCc2nnc(SCC(=O)Nc3nccs3)n2-c2ccccc2)c1 came out at 101%

Just so you know, measured viability for CCN(c1ccc(OC)cc1)S(=O)(=O)c1ccc2c(c1)CCN2C(=O)CCC(=O)O came out at 115%

Just so you know, measured viability for CC(C)NC(=O)CSc1nnc(-c2ccc(C(C)(C)C)cc2)n1C came out at 95%

Just so you know, measured viability for CCC(=O)Nc1ccc(NC(=O)c2cccc(OC)c2)nc1 came out at 94%

Just so you know, measured viability for CC1(C)Cc2noc(N)c2C(C)(C)N1O came out at 121%
